System: PPARg:RXRa DBDmut IVT, anti-RXR (DBD mutation: RXRa K156A/R161A, NR concentration 270 nM, RXRa partner concentration 90 nM)
protocol_summary: PBM binding z-score (relative to random genomic background probes); higher = stronger binding; sequences stand for … in GC…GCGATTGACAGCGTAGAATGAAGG
Lab note: compare PBM binding z-score against 3. Equal or greater, write met. Smaller, write not met.

>  <biosequence>
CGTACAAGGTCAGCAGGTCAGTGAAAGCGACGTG

>  <label_class>
met

$$$$
>  <biosequence>
CAAACTAGGTCACCGGAAGGTCAAAGCCCGCATG

>  <label_class>
met

$$$$
>  <biosequence>
CCTACTGGGCGAAAAAGGTCATTGATGCCGATAA

>  <label_class>
not met

$$$$
>  <biosequence>
CGAACTAGGTCAATGACAGGACAGTGAATAGTAA

>  <label_class>
met

$$$$
>  <biosequence>
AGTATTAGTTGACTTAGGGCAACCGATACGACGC

>  <label_class>
not met

$$$$
>  <biosequence>
CCTTCTGGGCCAAAGGTCATTGATTCCAATGCTC

>  <label_class>
met

$$$$
>  <biosequence>
CGAACGAGGGCATGAGTTGATAGCAAATGCCGAT

>  <label_class>
met

$$$$
>  <biosequence>
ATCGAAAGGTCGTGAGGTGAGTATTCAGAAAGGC

>  <label_class>
not met

$$$$
>  <biosequence>
CCAGACAGGTGAGAATGTAACTCAGCCTCGATTA

>  <label_class>
not met

$$$$
>  <biosequence>
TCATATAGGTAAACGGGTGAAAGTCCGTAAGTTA

>  <label_class>
met

$$$$
>  <biosequence>
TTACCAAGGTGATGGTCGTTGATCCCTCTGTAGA

>  <label_class>
not met

$$$$
>  <biosequence>
ATCTCTAGGTATAGATAGTTCAGTGAATGCAAAT

>  <label_class>
not met

$$$$
>  <biosequence>
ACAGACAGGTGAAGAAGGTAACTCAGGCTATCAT

>  <label_class>
not met

$$$$
>  <biosequence>
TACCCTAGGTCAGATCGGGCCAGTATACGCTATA

>  <label_class>
not met

$$$$
>  <biosequence>
GCATGTAGATCAAGGTTAAGAAAGACTAAGCTAA

>  <label_class>
not met

$$$$
>  <biosequence>
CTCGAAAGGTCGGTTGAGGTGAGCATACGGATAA

>  <label_class>
not met

$$$$
>  <biosequence>
ACTATTAGTTTACTTAGGGCAACCGATACGACGC

>  <label_class>
not met

$$$$
>  <biosequence>
GGAACGAGGGCAAAGTTGGTAGCATCTGTCGACG

>  <label_class>
met

$$$$
>  <biosequence>
CGAACGAGGGCATAAGTTGATAGCAAATGCCGAT

>  <label_class>
not met

$$$$
>  <biosequence>
ATCTCGAGGTAACCAAGTTCAGTGAATGCCGAAC

>  <label_class>
not met

$$$$
>  <biosequence>
ACTATTAGTTCACTTAGGGCAACCGATACGACGC

>  <label_class>
not met

$$$$
>  <biosequence>
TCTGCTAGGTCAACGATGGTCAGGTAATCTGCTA

>  <label_class>
met

$$$$
>  <biosequence>
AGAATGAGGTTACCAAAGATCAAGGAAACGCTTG

>  <label_class>
met

$$$$
>  <biosequence>
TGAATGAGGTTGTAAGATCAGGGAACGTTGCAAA

>  <label_class>
not met

$$$$
>  <biosequence>
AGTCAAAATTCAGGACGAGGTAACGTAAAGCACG

>  <label_class>
not met

$$$$
>  <biosequence>
CCGACTAGGGCAAAGGTTACCATACTCAGTACGA

>  <label_class>
met

$$$$
>  <biosequence>
TAGCCCAGGTCAGATCGGGCCAGTATACGCTATA

>  <label_class>
not met

$$$$
>  <biosequence>
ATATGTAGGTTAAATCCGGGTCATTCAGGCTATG

>  <label_class>
met

$$$$
>  <biosequence>
GCGTCTGGGGCATCAGCAGGTTACCATAACTTAA

>  <label_class>
not met

$$$$
>  <biosequence>
GCAGACAGGTGATACGCAGGTAACTCAGGGTGGC

>  <label_class>
not met

$$$$
>  <biosequence>
CCTAGTTGGACAGGAGGTCACACACCGGATATGA

>  <label_class>
not met

$$$$
>  <biosequence>
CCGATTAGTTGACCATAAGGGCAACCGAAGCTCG

>  <label_class>
not met

$$$$
>  <biosequence>
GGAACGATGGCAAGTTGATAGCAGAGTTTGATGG

>  <label_class>
not met

$$$$
>  <biosequence>
TGCCAAAGTTCAAAGGTAACGTAAGTATCCACAC

>  <label_class>
not met

$$$$
>  <biosequence>
CGTCCAAGGTCAAAGCTAGGTCAGTGAAAGCATT

>  <label_class>
met

$$$$
>  <biosequence>
GCTATTATTTGAAAGGGCAACCGAATGATTCTCG

>  <label_class>
not met

$$$$
>  <biosequence>
TCTAGTAGGCCAGAGGGTCACTCAAGAGGTACGG

>  <label_class>
met

$$$$
>  <biosequence>
GCGACTGGGGCATCAGCAGGTTGCCATAACTTAA

>  <label_class>
met

$$$$
>  <biosequence>
CGAACTAGGTCTAGGACAGTGAATCTCCGCACGC

>  <label_class>
not met

$$$$
>  <biosequence>
ATATGTAGGTTAAGGGTCAATCAGGTTGGTTCGC

>  <label_class>
met

$$$$
>  <biosequence>
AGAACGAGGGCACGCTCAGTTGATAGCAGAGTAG

>  <label_class>
met

$$$$
>  <biosequence>
AGAATGAGGTTATTACGATCAGGGAATTGCGGTC

>  <label_class>
met

$$$$
>  <biosequence>
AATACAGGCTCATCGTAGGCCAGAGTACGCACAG

>  <label_class>
not met

$$$$
>  <biosequence>
GCGACTGGGGCATAAGCAGGTTACCATAACTTAA

>  <label_class>
met

$$$$
>  <biosequence>
CCTCCAAGGTCAAAGGTCAGTGAAGAGATGACGG

>  <label_class>
met

$$$$
>  <biosequence>
CGAACTAGGTCAAGGACACTGAATCTCCGCACGC

>  <label_class>
met

$$$$
>  <biosequence>
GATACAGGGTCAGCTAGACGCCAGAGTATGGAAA

>  <label_class>
not met

$$$$
>  <biosequence>
CCTACTGGGCCACGAACGGTCATTGATTCAGTGA

>  <label_class>
met

$$$$
>  <biosequence>
AGAATGAGGTTACCAAAGATCAGGCAAACGCTTG

>  <label_class>
met

$$$$

====

Tested on: RXRa DBDmut IVT, anti-RXR (DBD mutation: RXRa K156A/R161A, NR concentration 90 nM)
protocol_summary: PBM binding z-score (relative to random genomic background probes); higher = stronger binding; sequences stand for … in GC…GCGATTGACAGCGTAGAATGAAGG

>  <biosequence>
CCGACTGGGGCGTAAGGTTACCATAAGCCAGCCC

>  <experimental_system>
RXRa DBDmut IVT, anti-RXR (DBD mutation: RXRa K156A/R161A, NR concentration 90 nM)

>  <PBM binding z-score>
-0.36

$$$$
>  <biosequence>
CGTCCAAGGTCACAGGTCAGTGAAGAGATGACGG

>  <experimental_system>
RXRa DBDmut IVT, anti-RXR (DBD mutation: RXRa K156A/R161A, NR concentration 90 nM)

>  <PBM binding z-score>
3.42

$$$$
>  <biosequence>
TCATATAGGTAAAGGTGCAAGTCGAACGATATGA

>  <experimental_system>
RXRa DBDmut IVT, anti-RXR (DBD mutation: RXRa K156A/R161A, NR concentration 90 nM)

>  <PBM binding z-score>
0.75

$$$$
>  <biosequence>
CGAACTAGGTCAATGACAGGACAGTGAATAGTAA

>  <experimental_system>
RXRa DBDmut IVT, anti-RXR (DBD mutation: RXRa K156A/R161A, NR concentration 90 nM)

>  <PBM binding z-score>
1.49

$$$$
>  <biosequence>
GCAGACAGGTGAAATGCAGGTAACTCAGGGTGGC

>  <experimental_system>
RXRa DBDmut IVT, anti-RXR (DBD mutation: RXRa K156A/R161A, NR concentration 90 nM)

>  <PBM binding z-score>
-0.341

$$$$
>  <biosequence>
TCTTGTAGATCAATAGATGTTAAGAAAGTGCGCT

>  <experimental_system>
RXRa DBDmut IVT, anti-RXR (DBD mutation: RXRa K156A/R161A, NR concentration 90 nM)

>  <PBM binding z-score>
0.767

$$$$
>  <biosequence>
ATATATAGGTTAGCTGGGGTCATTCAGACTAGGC

>  <experimental_system>
RXRa DBDmut IVT, anti-RXR (DBD mutation: RXRa K156A/R161A, NR concentration 90 nM)

>  <PBM binding z-score>
2.09

$$$$
>  <biosequence>
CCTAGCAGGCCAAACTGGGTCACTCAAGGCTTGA

>  <experimental_system>
RXRa DBDmut IVT, anti-RXR (DBD mutation: RXRa K156A/R161A, NR concentration 90 nM)

>  <PBM binding z-score>
0.301

$$$$
>  <biosequence>
CGTCCAAGGTCAGCAGGACAGTGAAAGCGACGTG

>  <experimental_system>
RXRa DBDmut IVT, anti-RXR (DBD mutation: RXRa K156A/R161A, NR concentration 90 nM)

>  <PBM binding z-score>
2.33

$$$$
>  <biosequence>
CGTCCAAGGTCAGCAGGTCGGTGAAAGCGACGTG

>  <experimental_system>
RXRa DBDmut IVT, anti-RXR (DBD mutation: RXRa K156A/R161A, NR concentration 90 nM)

>  <PBM binding z-score>
2.37

$$$$
>  <biosequence>
TCGAGTAGGTTAGTCGGGTCATTCAGCCAACATA

>  <experimental_system>
RXRa DBDmut IVT, anti-RXR (DBD mutation: RXRa K156A/R161A, NR concentration 90 nM)

>  <PBM binding z-score>
0.747

$$$$
>  <biosequence>
GCTTCTAGGTCAGGTTGGTCAGCTAACGGGTACG

>  <experimental_system>
RXRa DBDmut IVT, anti-RXR (DBD mutation: RXRa K156A/R161A, NR concentration 90 nM)

>  <PBM binding z-score>
0.783

$$$$
